measure: flash point (°C)
Number in °C, nothing else.

Use these answered entries as a reference point.
compound: C=CCO[Si](C)(C)C
flash point, °C: 0.00
--
compound: C=C[Si](OCCOC)(OCCOC)OCCOC
flash point, °C: 80.00
--
compound: C[Si](C)(C)N=C=S [Trimethylsilylisothiocyanate]
flash point, °C: 35.00
--
compound: C[Si](C)(C)Br
flash point, °C: -3.00

Shifting focus to the compound that follows.
Q) Tell me the measured flash point of C[Si](C)(C)CCOCCl [[2-(chloromethoxy)ethyl]trimethylsilane] , please.
A) 46.00

----------
measure: flash point (°C)
Number in °C, nothing else.

compound: C=CC(C)CC (stereo not given)
val: -27.9
//
compound: CCCCCC(C)CCC (stereo not given)
val: 44.0
//
compound: CCCS
val: -19.9
//
compound: CCCCCCCCCCCCCC
val: 109.2

Shifting focus to the compound that follows.
Q) Tell me the measured flash point of CCCCCCCC=O , please.
A) 51.0

----------
Entries and their measured flash point follow.
The number alone won't do; follow it with the unit.

Use these answered entries as a reference point.
compound: CCC1CCC(=O)CC1
val: 63 °C
//
compound: CCCCCOC=O [pentylformate]
val: 26 °C
//
compound: CCC(C)CCC(C)C (stereo unspecified)
val: 15 °C
//
compound: CC1=CC2C(CC1)C2(C)C (stereo unspecified)
val: 38 °C
//
compound: CCN(CC)C(C)=O [N,N-diethylacetamide]
val: 76 °C

Q) Tell me the measured flash point of C/C=C/CCCC [trans-2-heptene] , please.
A) -6 °C

Q) Tell me the measured flash point of CCCCOC(C)=O [butylacetate] , please.
A) 25 °C

Q) Tell me the measured flash point of CCCCC(C)C(=O)O (stereo unspecified) , please.
A) 105 °C

Q) Tell me the measured flash point of CCC(C)C(C)C(C)CC (stereo unspecified) , please.
A) 31 °C

Q) Tell me the measured flash point of COCCOC(C)=O [2-methoxyethylacetate] , please.
A) 43 °C

Q) Tell me the measured flash point of c1cc[nH]c1 , please.
A) 33 °C

----------
Entries and their measured flash point follow.
Number in °C, nothing else.

Use these answered entries as a reference point.
compound: CC1OC(C)OC(C)OC(C)O1 (stereo unspecified)
val: 36.00
--
compound: CCC(C)OC(C)=O (stereo unspecified) [butan-2-yl acetate]
val: 17.00
--
compound: COCCOCCO
val: 93.00

Q) Tell me the measured flash point of NCCCNCCCN , please.
A) 79.00

Q) Tell me the measured flash point of Cc1ccccc1N , please.
A) 85.00

Q) Tell me the measured flash point of COCCOC(C)=O [2-methoxyethyl acetate] , please.
A) 44.00

----------
Entries and their measured flash point follow.
Number in °C, nothing else.

compound: C[Si](C)(C)S[Si](C)(C)C
flash point / °C: 26.00

Q) Tell me the measured flash point of C=CO[Si](C)(C)C , please.
A) -10.00

Q) Tell me the measured flash point of C[Si](C)(C)Cc1ccccc1 , please.
A) 62.00

Q) Tell me the measured flash point of CO[Si](CCCNCCN)(OC)OC , please.
A) 96.00

Q) Tell me the measured flash point of C[Si](C)(C)OC1=CCCC1 , please.
A) 38.00

Q) Tell me the measured flash point of O=C=N[Si](N=C=O)(N=C=O)N=C=O , please.
A) 50.00

Q) Tell me the measured flash point of [SiH3]c1ccccc1 , please.
A) 8.00

----------
Entries and their measured flash point follow.
The number alone won't do; follow it with the unit.

compound: Cc1cccc([N+](=O)[O-])c1
flash point: 106.00 °C

compound: CC(O)C#N (centres undefined) [2-hydroxypropanenitrile]
flash point: 77.00 °C

compound: CCOP(=O)(SC(C)CC)SC(C)CC (centres undefined) [2-[butan-2-ylsulfanyl(ethoxy)phosphoryl]sulfanylbutane]
flash point: 129.00 °C

Shifting focus to the compound that follows.
Q) Tell me the measured flash point of CSC(C)(C)/C=N/O [(NE)-N-(2-methyl-2-methylsulfanylpropylidene)hydroxylamine] , please.
A) 118.00 °C

----------
Entries and their measured flash point follow.
Number in °C, nothing else.

Use these answered entries as a reference point.
compound: CCOCCOC(C)=O [2-ethoxyethylacetate]
flash point / °C: 51
//
compound: CCC(C)c1ccccc1O (stereo not given)
flash point / °C: 107
//
compound: CCCCCCCN
flash point / °C: 44
//
compound: CC(C)OC(C)C
flash point / °C: -28

Shifting focus to the compound that follows.
Q) Tell me the measured flash point of CCCCOC(=O)CC [butylpropanoate] , please.
A) 38

----------
Entries and their measured flash point follow.
Number in °C, nothing else.

Use these answered entries as a reference point.
lineNotation: C=C[Si](OCCOC)(OCCOC)OCCOC
flash point, °C: 80.00

lineNotation: Cl[Si](Cl)(Cl)CCc1ccccc1
flash point, °C: 91.00

lineNotation: C[Si](C)(Cl)CCC(F)(F)F
flash point, °C: 20.00

lineNotation: CC[SiH](CC)CC
flash point, °C: -3.00

Q) Tell me the measured flash point of C#CCO[Si](C)(C)C , please.
A) 27.00

Q) Tell me the measured flash point of C[Si]1(C)O[Si](C)(C)O[Si](C)(C)O[Si](C)(C)O[Si](C)(C)O1 , please.
A) 77.00

Q) Tell me the measured flash point of CCCCCC#C[Si](C)(C)C , please.
A) 42.00

Q) Tell me the measured flash point of CCN(CC)[Si](C)(C)N(CC)CC , please.
A) 35.00

Q) Tell me the measured flash point of CC[Si](CC)(CC)O[Si](CC)(CC)CC , please.
A) 76.00

Q) Tell me the measured flash point of CC(C)(C)[Si](C)(C)Cl , please.
A) 22.00

Q) Tell me the measured flash point of C[Si]1(C)O[Si](C)(C)O[Si](C)(C)O1 , please.
A) 32.00

----------
Entries and their measured flash point follow.
Number in °C, nothing else.

Use these answered entries as a reference point.
compound: Cc1ccc(Cl)cc1
flash point / °C: 46
--
compound: CCC1CCC(=O)C1 (configuration not stated)
flash point / °C: 46
--
compound: C#CCCCCCCCC
flash point / °C: 48
--
compound: CC(C)(C)SC(C)(C)C [di-tert-butylsulfide]
flash point / °C: 27
--
compound: CC(C)CO
flash point / °C: 28

Q) Tell me the measured flash point of C[C@@H]1CCCC[C@H]1O (relative stereo) [trans-2-methylcyclohexanol] , please.
A) 59

Q) Tell me the measured flash point of Cc1ccnc(C)c1 , please.
A) 47

----------
Entries and their measured flash point follow.
Number in °C, nothing else.

Use these answered entries as a reference point.
molecule: c1ccc(CN(Cc2ccccc2)Cc2ccccc2)cc1
flash point [°C]: 203
--
molecule: CCCCSSCCCC [dibutyl disulfide]
flash point [°C]: 113
--
molecule: C=CCCCCCCCCCC
flash point [°C]: 77

Q) Tell me the measured flash point of COCCOC(C)=O [2-methoxyethylacetate] , please.
A) 45

Q) Tell me the measured flash point of CCCc1ccccc1 , please.
A) 47

----------
Short version: flash point at least 20 °C is label 1, less is label 0.

Check out these entries, answers already filled in.
compound: CC(C)CC(C)C(C)C (stereo not given)
class: label 0
//
compound: CC(C)C
class: label 0
//
compound: CCCCC(CC)CCC (stereo not given)
class: label 1
//
compound: CCC(C)C(C)C(C)CC (stereo not given)
class: label 1
//
compound: CCCC(C)C(C)CC (stereo not given)
class: label 0
//
compound: CC(C)C(C)C(C)(C)C (stereo not given)
class: label 0
//
compound: CC(C)C(C)(C)C
class: label 0
//
compound: CCC(C)CCCC(C)C (stereo not given)
class: label 1

Q) Could you please find out whether CCC(C)C(C)C (stereo not given) has flash point that meets 20 °C or exceeds it?
A) label 0

Q) Could you please find out whether CCC(CC)CC has flash point that meets 20 °C or exceeds it?
A) label 0

----------
measure: flash point (°C)
Number in °C, nothing else.

compound: CC(C)=CCO [3-methylbut-2-en-1-ol]
flash point (°C): 50.00
//
compound: CCN(CCO)CCO [2-[ethyl(2-hydroxyethyl)amino]ethanol]
flash point (°C): 98.00
//
compound: O=C(Nc1cccc(Cl)c1)OCC#CCCl [4-chlorobut-2-ynyl N-(3-chlorophenyl)carbamate]
flash point (°C): 50.00
//
compound: NCCN [ethane-1,2-diamine]
flash point (°C): 34.00
//
compound: OCCBr [2-bromoethanol]
flash point (°C): 41.00
//
compound: O=Cc1ccccc1 [benzaldehyde]
flash point (°C): 64.00

Q) Tell me the measured flash point of C=CCCCCCCCCCC [dodec-1-ene] , please.
A) 100.00

Q) Tell me the measured flash point of Cc1ccc(C)c(N)c1 [2,5-dimethylaniline] , please.
A) 94.00

Q) Tell me the measured flash point of CC(Cl)CO (configuration not stated) [2-chloropropan-1-ol] , please.
A) 52.00

Q) Tell me the measured flash point of c1ccc2c(c1)Cc1ccccc1-2 [9H-fluorene] , please.
A) 151.00

Q) Tell me the measured flash point of Oc1c(Cl)cc(Cl)cc1Cl [2,4,6-trichlorophenol] , please.
A) 99.00

Q) Tell me the measured flash point of CCc1cccc(C)c1N [2-ethyl-6-methylaniline] , please.
A) 102.00

Q) Tell me the measured flash point of CC(=O)C=C=O [but-1-ene-1,3-dione] , please.
A) 33.00

Q) Tell me the measured flash point of CCCCCO[N+](=O)[O-] [pentyl nitrate] , please.
A) 49.00

Q) Tell me the measured flash point of COC(C)COC(C)COC(C)CO (configuration not stated) [2-[2-(2-methoxypropoxy)propoxy]propan-1-ol] , please.
A) 111.00

Q) Tell me the measured flash point of CCCCOCCOCCOCc1cc2c(cc1CCC)OCO2 [5-[2-(2-butoxyethoxy)ethoxymethyl]-6-propyl-1,3-benzodioxole] , please.
A) 171.00

Q) Tell me the measured flash point of C=C(C)C(=O)OCCCCCCCC [octyl 2-methylprop-2-enoate] , please.
A) 91.00

Q) Tell me the measured flash point of CCCCCCCCCCS [decane-1-thiol] , please.
A) 98.00

Q) Tell me the measured flash point of CCOC1CCC=CO1 (configuration not stated) [2-ethoxy-3,4-dihydro-2H-pyran] , please.
A) 37.00

Q) Tell me the measured flash point of CC(=O)Oc1ccccc1 [phenyl acetate] , please.
A) 80.00

Q) Tell me the measured flash point of Oc1cc(Cl)c(Cl)cc1Cl [2,4,5-trichlorophenol] , please.
A) 133.00

Q) Tell me the measured flash point of C=C(C)[C@H]1CC=C(C)C(=O)C1 [(5S)-2-methyl-5-prop-1-en-2-ylcyclohex-2-en-1-one] , please.
A) 89.00
